# reported normalized growth; entries follow
- assay.procedure: chemical genetic growth profiling, strain panel (AID 1159580);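 also: tested at 20 µM; growth read once vehicle control cultures reached saturation at 30 °C; 1 = growth at the plate median or of vehicle wells; lower values mean less growth of the strain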
- assay.context: S. cerevisiae deletion strains, growth OD, locus YHR079C, strain IRE1, hits give low values
In all, about 5,500 compounds went through this assay and about 2,000 (36%) were called active. Roughly 18% stayed inconclusive and do not appear here. Some of the results follow. Where a SMILES comes first, the peptide text is derived from it. Bridges are numbered along the chain shown (N, C = ends). Side-chain parts run from the residue outwards. [ ]: non-standard residue; d: D form. The star is where a group is joined. Octanoyl(6-Me) = CCC(C)CCCCC(=O)*; X1 = CCC(C)C(N)C1=NC(C(=O)*)CS1; Orn = NCCC[CH](N)C(=O)O; Dab = NCC[CH](N)C(=O)O
Output: the number by itself.

Examples with their reported normalized growth follow.
- COc1ccc(C2CC(c3ccc(C)cc3C)=NN2C(C)=O)cc1 (configuration not stated): 0.971
- Cc1cc(C(C)(C)C)cc(C)c1CC1=NCCN1: 1.01
- CC(C)CC1NC(=O)C(CCCN)NC(=O)C(C(C)C)NC(=O)C2CCCN2C(=O)C(Cc2ccccc2)NC(=O)C(CC(C)C)NC(=O)C(CCCN)NC(=O)C(C(C)C)NC(=O)C2CCCN2C(=O)C(Cc2ccccc2)NC1=O (configuration not stated) (cyclo(FPV[Orn]LFPV[Orn]L); configuration not given here): 0.993
- O=C1c2ccccc2C(=O)C1c1ccc(Br)cc1: 0.816
- CC(C)(C)c1ccc(C(=O)NNC(=S)Nc2ccc(Cl)cc2)cc1: 0.916

What does the record list as normalized growth for Cc1ccc(OCc2n[nH]c(=S)n2Cc2ccccc2)c2c1CCC2 ? 0.619

Would you kindly repeat that for Cc1ccc(N(CC2=NCCN2)c2cccc(O)c2)cc1 ? 1.05

Also check CC[C@H]1CN2CCc3cc(OC)c(OC)cc3C2C[C@@H]1CC1NCCc2cc(OC)c(OC)cc21 (some centres not stated) 1.12

Then Cc1onc(-c2c(Cl)cccc2Cl)c1C(=O)N[C@@H]1C(=O)N2[C@@H]1SC(C)(C)[C@@H]2C(=O)O ? 1.02

Now give it for O=C1c2ccccc2C(=O)C1c1ccccc1 too. 0.95

Again, but for CC(=O)c1ccccc1C(=O)c1ccc(C(C)(C)C)cc1 0.918

Also, CCC(C)CCCCC(=O)NC(CCN)C(=O)NC(C(=O)NC(CCN)C(=O)NC1CCNC(=O)C(C(C)O)NC(=O)C(CCN)NC(=O)C(CCN)NC(=O)C(CC(C)C)NC(=O)C(Cc2ccccc2)NC(=O)C(CCN)NC1=O)C(C)O (configuration not stated) ({Octanoyl(6-Me)}-[Dab]T[Dab][Dab][Dab]FL[Dab][Dab]T; lactam 4-C; configuration not given here) please. 0.995

Param item: COc1c2occc2c(OC)c2c(=O)cc(C)oc12 0.996

Try O=C(O)[C@H](O)[C@@](O)(Cc1ccc(O)cc1)C(=O)O next. 1

Moving on to the next compound: CCC(C)C(N)C1=NC(C(=O)NC(CC(C)C)C(=O)NC(CCC(=O)O)C(=O)NC(C(=O)NCCCCC2NC(=O)C(CC(N)=O)NC(=O)C(CC(=O)O)NC(=O)C(Cc3cnc[nH]3)NC(=O)C(Cc3ccccc3)NC(=O)C(C(C)CC)NC(=O)C(CCCN)NC2=O)C(C)CC)CS1 (stereo not drawn) (cyclo(DNK([Ile-Glu-Leu-X1])[Orn]IFH); configuration not given here) 1.05

Note, next up: COc1cc(OC)cc(N2C(=O)C=CC2=O)c1 0.231

Now the same for CCOC([O-])=Nc1c[n+](N2CCOCC2)no1 1.03

Same read-out for CC[C@@H](CO)NC(=O)[C@@H]1C=C2c3cccc4[nH]cc(c34)C[C@H]2N(C)C1 ? 1.07
